assay_endpoint: melting point (°C)

molecule="Cc1ccc(C)c(COc2ccc3cc(C(=O)NC(Cc4ccccc4)C(=O)O)ccc3c2)c1 (stereo not shown) [Example 1-40]" assay_endpoint="melting point" unit_of_measure=°C result=210
molecule="O=C(NC(Cc1cccc2ccccc12)C(=O)O)c1ccc2cc(OCc3ccccc3)ccc2c1 (stereo not shown) [Example 1-48]" assay_endpoint="melting point" unit_of_measure=°C result=218

----------
assay_endpoint: melting point (°C)

molecule="O=C(NC(Cc1ccccc1)C(=O)O)c1ccc2cc(OCc3ccc(F)c(F)c3)ccc2c1 (stereo not shown)" result=185
molecule="O=C(NC(Cc1ccccc1)C(=O)O)c1ccc2cc(OCc3cccc(OCC4CC4)c3)ccc2c1 (stereo not shown)" result=179
molecule="O=C(NC(Cc1ccccc1)C(=O)O)c1ccc2cc(OCCc3ccccc3)ccc2c1 (stereo not shown)" result=144
molecule="O=C(NC(Cc1ccccc1)C(=O)O)c1ccc2cc(OCCc3ccccn3)ccc2c1 (stereo not shown)" result=143
molecule="Cc1ccc(COc2ccc3cc(C(=O)NC(Cc4ccccc4)C(=O)O)ccc3c2)cc1 (stereo not shown)" result=212
molecule="CC(COc1ccc2cc(C(=O)NC(Cc3ccccc3)C(=O)O)ccc2c1)c1ccccc1 (stereo not shown)" result=160
molecule=O=C(N[C@H](Cc1ccccc1)C(=O)O)c1ccc2cc(OCc3ccccc3)ccc2c1 result=179
